Values from ChEMBL document CHEMBL1155084

Tested on: Blood
Test: Inhibition of TNFalpha release in human whole blood
Format: functional, tissue-based
measure: log10 of IC50 (log10 of the value in µM)
Answers are given as log10 of IC50 in µM.

Examples with their reported log10 of IC50 follow.
{"compound": "CSc1nc(-c2ccnc(NCCCO)c2)c(-c2ccc(F)cc2)[nH]1", "log10 of IC50": -0.17}
{"compound": "CSc1nc(-c2ccc(F)cc2)c(-c2ccnc(NCc3ccc(C(C)(C)C)cc3)c2)[nH]1", "log10 of IC50": 1.72}
{"compound": "CSc1nc(-c2ccc(F)cc2)c(-c2ccnc(OCc3ccccc3)c2)[nH]1", "log10 of IC50": 1.65}
{"compound": "CSc1nc(-c2ccc(F)cc2)c(-c2ccnc(N[C@H]3CC[C@@H](C)CC3)c2)[nH]1", "log10 of IC50": 0.57}
{"compound": "CSc1nc(-c2ccnc(OCC3CCCO3)c2)c(-c2ccc(F)cc2)[nH]1 (configuration not stated)", "log10 of IC50": 1.05}

Given the compound CSc1nc(-c2cccc(C(F)(F)F)c2)c(-c2ccnc(NCc3cccs3)c2)[nH]1 , what is its reported log10 of IC50?
1.43

Given the compound CSc1nc(-c2ccc(F)cc2)c(-c2ccnc(NC(CO)C(C)C)c2)[nH]1 (configuration not stated) , what is its reported log10 of IC50?
0.03

Given the compound CSc1nc(-c2ccc(F)cc2)c(-c2ccnc(NCc3ccc(C)o3)c2)[nH]1 , what is its reported log10 of IC50?
0.87

Given the compound COCCn1c(SC)nc(-c2ccc(F)cc2)c1-c1ccnc(NC2CCOCC2)c1 , what is its reported log10 of IC50?
0.77

Given the compound CSc1nc(-c2ccc(F)cc2)c(-c2ccnc(NCc3ccc(F)cc3)c2)[nH]1 , what is its reported log10 of IC50?
1.35

Given the compound CSc1nc(-c2ccc(F)cc2)c(-c2ccnc(OC(C)CCCC(C)C)c2)[nH]1 (configuration not stated) , what is its reported log10 of IC50?
1.63

Given the compound Fc1ccc(-c2nc(SCc3ccccc3)[nH]c2-c2ccnc(Cl)c2)cc1 , what is its reported log10 of IC50?
1.71

Given the compound CSc1nc(-c2ccc(F)cc2)c(-c2ccnc(NC(C)c3ccccc3)c2)n1C (configuration not stated) , what is its reported log10 of IC50?
0.48
